ASSAY: Plasma pharmacokinetics after single PO or IV administration (Example 5), LC-MS/MS
DETAILS: female, Sprague-Dawley, rat, plasma, po, 36 mg/kg, Cmax (ng/mL) Mean ± StdDev, Group 12: 36 mg/kg PO, ORA-Plus; dosed as 2HCl
MEASURE: Cmax (ng/mL)

| SMILES | READOUT UNITS | RECORDED VALUE |
| --- | --- | --- |
| CC(C)NCCCn1c(Sc2cc3c(cc2I)OCO3)nc2c(N)ncnc21 | ng/mL | 853 |

###

ASSAY: Plasma pharmacokinetics after single PO or IV administration (Example 5), LC-MS/MS
DETAILS: female, Sprague Dawley, rat, plasma, po, 24 mg/kg, Cmax (ng/mL) Mean ± StdDev, Group 5: 24 mg/kg PO, 60 mM Citric acid buffer + 30% Captisol; free base

| SMILES | Cmax |
| --- | --- |
| CC(C)(C)CNCCn1c(Sc2cc3c(cc2I)OCO3)nc2c(N)ncnc21 | 685 ng/mL |

###

ASSAY: Plasma pharmacokinetics after single PO or IV administration (Example 5), LC-MS/MS
DETAILS: female, Sprague-Dawley, rat, plasma, iv, 24 mg/kg, AUC0-last (hr*ng/mL) Mean ± StdDev, Group 19: 24 mg/kg IV, 0.9% Saline; dosed as 2HCl
MEASURE: AUC(0-t) (ng·h/mL)

| COMPOUND | READOUT UNITS | RECORDED VALUE |
| --- | --- | --- |
| CC(C)NCCCn1c(Sc2cc3c(cc2I)OCO3)nc2c(N)ncnc21 [Compound 1] | ng·h/mL | 5500 |

###

ASSAY: Plasma pharmacokinetics after single oral dose in ORA-Plus or SyrSpend SF (Example 6), LC-MS/MS
Format: in vivo, Sprague Dawley rats
DETAILS: female, Sprague Dawley, rat, plasma, po, 60 mg/kg, G11: 2HCl, 60 mg/kg single oral dose, SyrSpend, rat plasma

| MOLECULE | AUC(0-t) |
| --- | --- |
| CC(C)(C)CNCCn1c(Sc2cc3c(cc2I)OCO3)nc2c(N)ncnc21 [Compound 2 2HCl] | 4890 ng·h/mL |

###

ASSAY: Plasma pharmacokinetics after single oral dose in ORA-Plus or SyrSpend SF (Example 6), LC-MS/MS
Format: in vivo, Sprague Dawley rats
DETAILS: female, Sprague Dawley, rat, plasma, po, 48 mg/kg, G6: 2HCl, 48 mg/kg single oral dose, ORA-plus, rat plasma

| COMPOUND | READOUT UNITS | Tmax |
| --- | --- | --- |
| CC(C)NCCCn1c(Sc2cc3c(cc2I)OCO3)nc2c(N)ncnc21 [Compound 1 2HCl] | h | 2.8 |

###

ASSAY: Plasma pharmacokinetics after single oral dose in ORA-Plus or SyrSpend SF (Example 6), LC-MS/MS
Type: in vivo, Sprague Dawley rats
DETAILS: female, Sprague Dawley, rat, plasma, po, 24 mg/kg, G5: 2HCl, 24 mg/kg single oral dose, ORA-plus, rat plasma; n = 4
MEASURE: AUC(0-inf) (ng·h/mL)

| COMPOUND | MEASURE | RECORDED VALUE |
| --- | --- | --- |
| CC(C)NCCCn1c(Sc2cc3c(cc2I)OCO3)nc2c(N)ncnc21 [Compound 1 2HCl] | AUC(0-inf) | 4250 |
